The origin of these recorded values is patent US10487072B2.

biological target: human MC4R (Homo sapiens); assay: human MC4R agonistic activity
Sequence (P32245 whole entry): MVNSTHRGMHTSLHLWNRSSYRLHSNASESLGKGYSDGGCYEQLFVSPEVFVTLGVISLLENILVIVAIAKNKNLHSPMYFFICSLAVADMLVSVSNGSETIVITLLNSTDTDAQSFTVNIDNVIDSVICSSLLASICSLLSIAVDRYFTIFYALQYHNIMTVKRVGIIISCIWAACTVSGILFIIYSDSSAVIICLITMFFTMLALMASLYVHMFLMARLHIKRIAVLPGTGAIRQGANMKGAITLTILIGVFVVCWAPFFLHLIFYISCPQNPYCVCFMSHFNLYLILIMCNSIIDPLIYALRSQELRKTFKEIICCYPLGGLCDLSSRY
property name: pEC50
Just the number, please; pEC50 means minus log10 of the concentration in mol/L.

Known value: human MC4R (Homo sapiens) pEC50 of the compound `Cc1ccc(Cn2ccnc2NC(=O)[C@@H]2CN(CC[C@H]3Cc4ccccc4CN3)C[C@H]2c2ccc(F)cc2F)c(N2CCC(C(=O)O)CC2)c1` equals 6.25

---

molecular target: Human MC1R (Homo sapiens, UniProt Q01726); construct: endogenous in cells; host or cells: human melanoma cell line HBL; assay: Human MC1R agonistic activity measurement (cAMP assay) using human melanoma cell line HBL; type: cell-based; conditions: 0.5 h; Intrinsic Activity; vehicle cAMP = 0%, αMSH at 10^-6 M = 100%; HBL cells; read-out: Human MC1R IA %
Sequence (Q01726 whole entry): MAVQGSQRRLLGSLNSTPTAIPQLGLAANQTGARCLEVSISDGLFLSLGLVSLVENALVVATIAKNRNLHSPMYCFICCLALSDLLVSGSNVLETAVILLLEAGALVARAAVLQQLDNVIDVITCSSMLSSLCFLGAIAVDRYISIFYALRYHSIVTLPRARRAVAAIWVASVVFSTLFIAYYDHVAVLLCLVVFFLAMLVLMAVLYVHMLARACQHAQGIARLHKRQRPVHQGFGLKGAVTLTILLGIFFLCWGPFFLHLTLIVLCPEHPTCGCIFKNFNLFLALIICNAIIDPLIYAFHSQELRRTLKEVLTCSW
Counter-ions that a name gives are not always drawn.
Note to self: Emax under 90% means TRUE, ties and anything higher get FALSE.

Does `Cc1ccc(Cn2ccnc2NC(=O)[C@@H]2CN(C3(C)CCN(CCO)CC3)C[C@H]2c2ccc(F)cc2F)c(N2CCOCC2)c1` have Emax strictly under 90%? TRUE

Does Cc1ccc(Cn2ccnc2NC(=O)[C@@H]2CN(C(C)(C)C)C[C@H]2c2ccc(F)cc2F)c(N2CCC(C(=O)NS(=O)(=O)N(C)C)CC2)c1 [Example 85, trihydrochloride] have Emax strictly under 90%? FALSE

Does `CC(C)(C)N1C[C@@H](c2ccc(F)cn2)[C@](F)(C(=O)Nc2nccn2Cc2ccc(C(F)(F)F)nc2N2CCOCC2)C1` have Emax strictly under 90%? TRUE

Does `COc1ccc([C@@H]2CN(C(C)(C)C)C[C@@]2(F)C(=O)Nc2nccn2Cc2ccc(C(F)(F)F)cc2N2CCC(C(=O)O)CC2)cc1` have Emax strictly under 90%? FALSE

Does `COC(C)(C)CCCN1C[C@@H](c2ccc(F)cc2F)[C@](F)(C(=O)Nc2nccn2Cc2ccc(C(F)(F)F)cc2N2CCC(C(=O)O)CC2)C1` have Emax strictly under 90%? TRUE

Does `CC(C)(C)N1C[C@@H](C(=O)Nc2nccn2CC2(N3CCOCC3)CCCCC2)[C@H](c2ccc(F)cc2F)C1` have Emax strictly under 90%? TRUE

Does `O=C(O)C1CCN(c2cc(C(F)(F)F)ccc2Cn2ccnc2NC(=O)[C@]2(F)CN(CCCS(=O)(=O)N3CCCC3)C[C@H]2c2ccc(F)cc2F)CC1` have Emax strictly under 90%? FALSE

Does `CC(C)c1ccc(Cn2ccnc2NC(=O)[C@]2(F)CN(C(C)(C)C)C[C@H]2c2ccc(F)cc2)c(N2CCC(C(=O)O)CC2)c1` have Emax strictly under 90%? FALSE

Does `COc1ccc([C@@H]2CN(C(C)(C)C)C[C@@]2(F)C(=O)Nc2nccn2Cc2ccc(C(C)C)cc2N2CCC(C(=O)O)CC2)cc1` have Emax strictly under 90%? FALSE

Does `Cc1ccc(Cn2ccnc2NC(=O)[C@@H]2CN(c3ccnc(C)c3)C[C@H]2c2ccc(F)cc2F)c(N2CCOCC2)c1` have Emax strictly under 90%? TRUE

Does `CC(C)(C)N1C[C@@H](c2ccc(F)cc2)[C@](F)(C(=O)Nc2nccn2Cc2ccc(C(F)(F)F)cc2N2CCC(C(=O)O)CC2)C1` have Emax strictly under 90%? FALSE
